In this section we review reported recovery at 2 h, 10 μM values for a set of compounds.
Test: Caco-2 permeability assay
Type: in vitro ADME, human
Conditions: human, Caco-2, pH 7.4, SI table; read-out: Recovery B:A
Enter your answer as a number in %; do not include the unit.

[
  {
    "compound": "COC(=O)[C@H](Cc1c[nH]c2ccccc12)NC(=O)C(CC(C)C)CP(=O)(O)[C@@H](N)CCc1ccccc1 (stereo in doubt)",
    "unit": "%",
    "recovery at 2 h, 10 μM": 84
  },
  {
    "compound": "CC(C)C[C@H](CP(=O)(O)[C@H](CCc1ccccc1)NC(=O)OCc1ccccc1)C(=O)N[C@@H](Cc1c[nH]c2ccccc12)C(N)=O",
    "unit": "%",
    "recovery at 2 h, 10 μM": 84
  },
  {
    "compound": "CC(C)C[C@@H](CP(=O)(O)[C@@H](N)CCc1ccccc1)C(=O)N[C@@H](Cc1c[nH]c2ccccc12)C(N)=O [DG013B 2, reference compound]",
    "unit": "%",
    "recovery at 2 h, 10 μM": 90
  },
  {
    "compound": "CC(C)C[C@H](CP(=O)(O)[C@@H](N)CCc1ccccc1)C(=O)N[C@@H](Cc1c[nH]c2ccccc12)C(N)=O [DG013A 1, reference compound]",
    "unit": "%",
    "recovery at 2 h, 10 μM": 100
  }
]

We now examine a further compound.
What measured recovery at 2 h, 10 μM goes with CC(C)CC(CP(=O)(O)[C@@H](N)CCc1ccccc1)C(=O)N[C@@H](Cc1c[nH]c2ccccc12)C(=O)O (stereo in doubt) ?
96

Cited source for all entries: paper PMC8188423
